test: Evaluation on solubility (HPLC-UV, phosphate-buffered saline); assay type: physicochemical; conditions: aqueous buffer, kinetic from dmso stock; Dulbecco's phosphate-buffered saline pH 7 (GIBCO), room temperature, about 15 minutes shaking
Reported Property: solubility

What value of solubility has been reported for the following molecule? Nc1ccc(C(=O)NCc2ccc(Cc3cc4c(s3)COC4)cc2)c(N)n1 [Reference Example 1]
13.9 µM

What value of solubility has been reported for the following molecule? Cc1cc(Cc2ccc(CNC(=O)c3ccc(N)nc3N)cc2)sc1C [Comparative Example 1, reference compound]
0.2 µM

What value of solubility has been reported for the following molecule? Nc1nc2c(nc1C(=O)NCc1ccc(COc3ccccn3)cc1)COC2 [Reference Example 2]
2.1 µM

What value of solubility has been reported for the following molecule? Cc1nc(N)c(C(=O)NCc2ccc(COc3ccccn3)cc2)nc1C [Comparative Example 2, reference compound]
0.9 µM
